binders and their reported pKd
- MEASURED_ON: T1, human MSLN-FL-his protein (human, UniProt Q13421 296-580)
- T1 construct: made in HEK293E cells, purified on nickel column; also called hMSLN-FL-his; human MSLN full-length protein; not shown: His tag
- ASSAY_OVERVIEW: SPR (Biacore), antibody captured on Protein A chip;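 further: measured at 25 °C, analyte injected 240 s in five twofold dilutions from 200 nM, dissociation up to 600 s, double-referenced, fitted with Langmuir 1:1 model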
Reminder that pKd means the negative base-10 logarithm of the concentration expressed in mol/L.

Some entries whose results are on file:
| BINDER | pKd |
| --- | --- |
| S009-F1.25.10 (antibody, human IgG1, kappa, V domains shown, human-murine chimeric antibody, human IgG1/kappa constant regions) VH: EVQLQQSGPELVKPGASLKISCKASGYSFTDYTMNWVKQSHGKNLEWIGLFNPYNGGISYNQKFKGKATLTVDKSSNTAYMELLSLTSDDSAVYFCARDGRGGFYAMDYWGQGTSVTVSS VL: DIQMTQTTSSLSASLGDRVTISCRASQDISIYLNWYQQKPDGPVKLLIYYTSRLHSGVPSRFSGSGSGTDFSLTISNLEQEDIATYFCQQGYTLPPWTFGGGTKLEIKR | 6.73 |
| S009-F3.45.21 (antibody, human IgG1, kappa, V domains shown, human-murine chimeric antibody, human IgG1/kappa constant regions) VH: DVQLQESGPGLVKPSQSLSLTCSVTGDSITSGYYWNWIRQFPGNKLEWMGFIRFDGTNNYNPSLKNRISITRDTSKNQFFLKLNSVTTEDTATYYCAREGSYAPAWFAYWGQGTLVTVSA VL: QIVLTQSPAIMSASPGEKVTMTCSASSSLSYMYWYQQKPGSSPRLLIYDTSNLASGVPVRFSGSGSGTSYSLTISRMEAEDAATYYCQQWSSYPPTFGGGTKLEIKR | 8.82 |
| S009-F2.39.3 (antibody, human IgG1, kappa, V domains shown, human-murine chimeric antibody, human IgG1/kappa constant regions) VH: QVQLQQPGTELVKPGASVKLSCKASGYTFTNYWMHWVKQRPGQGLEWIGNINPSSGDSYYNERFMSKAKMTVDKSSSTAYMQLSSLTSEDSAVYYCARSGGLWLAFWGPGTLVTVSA VL: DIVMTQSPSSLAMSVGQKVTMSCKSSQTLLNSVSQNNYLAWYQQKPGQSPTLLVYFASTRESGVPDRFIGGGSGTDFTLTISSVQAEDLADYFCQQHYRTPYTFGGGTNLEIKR | 8.51 |
| S009-F2-56.12 (antibody, human IgG1, kappa, V domains shown, human-murine chimeric antibody, human IgG1/kappa constant regions) VH: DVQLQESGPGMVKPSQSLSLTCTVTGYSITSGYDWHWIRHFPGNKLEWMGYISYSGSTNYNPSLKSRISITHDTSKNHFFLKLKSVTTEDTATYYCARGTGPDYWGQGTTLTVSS VL: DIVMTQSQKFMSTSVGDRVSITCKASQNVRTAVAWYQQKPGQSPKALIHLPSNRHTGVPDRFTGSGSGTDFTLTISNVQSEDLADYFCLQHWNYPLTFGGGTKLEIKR | 7.37 |

Moving on to the next binder.
*Q* Any idea what its pKd is? The binder is S009-F4-94.15 (antibody, human IgG1, kappa, V domains shown, human-murine chimeric antibody, human IgG1/kappa constant regions) VH: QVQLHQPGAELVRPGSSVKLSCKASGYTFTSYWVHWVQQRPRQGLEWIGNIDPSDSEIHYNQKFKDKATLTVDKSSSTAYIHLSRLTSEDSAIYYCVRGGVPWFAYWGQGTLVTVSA VL: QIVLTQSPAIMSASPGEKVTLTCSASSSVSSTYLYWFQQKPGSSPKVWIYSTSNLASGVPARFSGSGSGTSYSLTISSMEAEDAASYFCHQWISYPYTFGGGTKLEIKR
*A* 8.92
